tested on: Clostridium perfringens DSM756; type: cell-based; conditions: RDA; 50% MHB, pH 6
outcome_measure: Antimicrobial activity against Clostridium perfringens (in words)

molecule: SEQ ID NO: 267: mature GH24 lysozyme from Trichoderma harzianum, comprising LED (protein, listed as Trichoderma harzianum, mat_peptide (1)..(248), mature GH24 lysozyme from Trichoderma harzianum, comprising LED) YPITGDVVNCRTGPGTSYAIKKSYKKNQDISISCQTAGTSVNGNSIWDKTADGCYVADYYVKTGSSGYVTKKCTASSGGGSSSSYCKTINSAGVDLIAKWEGFVASPKPDPIGLPTVGYGHLCQQKNCREVKYKFPLTKTTAKELLLDDLPKYTKCLADYLNDKPKLNANQWAALTSWVFNVGCGNAKTSTLVKRLNNGEAANTVAAEELPKWRMAGGKVLPGLEARRKDEVKLFKTASSKQAYPKCQ
endpoint_value: significant activity
//
molecule: SEQ ID NO: 264: mature GH24 lysozyme from Chaetomium thermophilum, comprising LED (protein, listed as Chaetomium thermophilum, mat_peptide (1)..(249), mature GH24 lysozyme from Chaetomium thermophilum, comprising LED) PASAYAITGDNVNCRSGPGTSYAVKKVYKKGTDVKISCQTTGTNINGNNLWDKTSDGCYVSDYYVKTGSNGYVTSKCSSSGGSTCAAPKSNQATVDLIAEFEGFRANIYTDAAGYATVGYGHKCQKAKCAEVKYKIPLSKADGKKLLADDMRSFEVCITNMLNSKAKLNYNQFGALVSWSFNVGCGAAKSSTLIKRLNNGENVNKVLSEELPKWNKAGGKVLQGLVRRRAAEVALAKKSGSSQALPVKC
endpoint_value: significant activity
